Molecular target: FXR (Homo sapiens)
Construct: Plate human hepatocarcinoma Huh7 cells grown in DMEM:F12 with 10% fetal bovine serum; endogenous in cells; host or cells: Huh7 human hepatocarcinoma cells
Sequence (Q96RI1 whole entry): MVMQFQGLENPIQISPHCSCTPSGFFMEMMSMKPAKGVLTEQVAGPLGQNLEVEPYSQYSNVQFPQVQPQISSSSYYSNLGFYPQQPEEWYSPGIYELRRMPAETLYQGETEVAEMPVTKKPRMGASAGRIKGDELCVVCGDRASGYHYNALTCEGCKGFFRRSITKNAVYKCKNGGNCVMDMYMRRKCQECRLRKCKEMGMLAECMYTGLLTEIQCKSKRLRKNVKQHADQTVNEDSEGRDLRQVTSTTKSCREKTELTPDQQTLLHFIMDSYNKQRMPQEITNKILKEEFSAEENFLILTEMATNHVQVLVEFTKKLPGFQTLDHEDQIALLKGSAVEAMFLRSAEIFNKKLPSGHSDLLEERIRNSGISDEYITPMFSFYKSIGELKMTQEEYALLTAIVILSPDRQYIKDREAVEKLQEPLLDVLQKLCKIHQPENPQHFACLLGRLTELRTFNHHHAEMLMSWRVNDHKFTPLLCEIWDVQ
Test: bDNA Assay for SHP mRNA
Type: cell-based
Details: human hepatocarcinoma Huh7 cells, 24 hours treatment, SHP mRNA by bDNA; read-out: SHP gene activation EC50
pEC50: −log10 of the molar value.
EXPERIMENTAL_ENDPOINT: pEC50

The value of pEC50 measured for the molecule `CCN(Cc1cccc(C(=O)O)c1)c1ccc(OCc2c(C(C)C)cnn2-c2c(Cl)cccc2Cl)cc1C` turned out to be ~7.28

Each recorded value in this set is attributed to patent US7846960B2.
